Recorded values, source patent US12599136B2.

# Test system: Cyperus esculentus
# PROTOCOL_DESCRIPTION: Post-emergence herbicidal action against CYPES
# Format: in vivo
# EXPERIMENTAL_SETUP: 80 g/ha, visual assessment about 3 weeks after treatment
PROPERTY_MEASURED: Post-emergence action against CYPES in % (%)
Answers are plain numbers, in %.

MOL_SMILES | PROPERTY_MEASURED | RESULT_UNITS | ENDPOINT_VALUE
CCn1nnnc1NC(=O)c1ccc(C(F)(F)F)c(C(=O)N2CCCC2)c1Cl | Post-emergence action against CYPES in % | % | 80

Consider the following items and state reported Post-emergence action against CYPES in % for each.
1. CCn1nnnc1NC(=O)c1ccc(C(F)(F)F)c(C(=O)N(C)CC2CC2)c1Cl
2. CN(CC1CC1)C(=O)c1c(C(F)(F)F)ccc(C(=O)Nc2nnnn2C)c1Cl

1: 90; 2: 80
